Where these numbers come from: paper PMC11062922

- System: PRKCI
- Parameters: species or system human, MV4-11 + K-562 + COLO205 + SK-N-BE2 + OVCAR-8
- CONDITION_LABEL: read-out: apparent Kd; compound concentrations:100 nM and 1000 nM (sheet 'Samples'); n = 1
Rule: potency estimated from few doses below 2000 nM gives class 1. Equal to or above 2000 nM gives class 0.

# MOLECULE, CLASS_LABEL
rows = [
    ("CN1C[C@@H]2Cn3c(c(C4=C(c5cn(C)c6ccccc56)C(=O)NC4=O)c4ccccc43)C[C@H]2C1.Cl [RO0320557-001]", "class 1"),
]

query: Please determine if CCCC(=O)Nc1n[nH]c2ncccc12 [SB-601436] is below 2000 nM in terms of potency estimated from few doses.
result: class 0

query: Dear colleague, could you confirm whether potency estimated from few doses of CCn1c(-c2nonc2N)nc2cncc(C(=O)N3CC[C@H](N)C3)c21.Cl [SB-772077-B] falls below 2000 nM? Thanks.
result: class 1

query: Is potency estimated from few doses strictly under 2000 nM for the entry CCn1c(-c2nonc2N)nc2c(C#CC(C)(C)O)ncc(OCCCCN)c21.CCn1c(-c2nonc2N)nc2c(C#CC(C)(C)O)ncc(OCCCCN)c21.O=C(O)C(F)(F)F.O=C(O)C(F)(F)F [GSK507274A] ?
result: class 1

query: Hello, is potency estimated from few doses of the following molecule strictly smaller than 2000 nM? CCn1c(-c2nonc2N)nc2cncc(Br)c21 [SB-738004]
result: class 1

query: Lab log: compare recorded potency estimated from few doses with 2000 nM; is it strictly lower for Cn1cc(C2=C(c3cn(CCCSC(=N)N)c4ccccc34)C(=O)NC2=O)c2ccccc21 [RO0318220-000] ?
result: class 0
